- experimental-target: P2X7 receptor (IL-1β release from THP-1 cells) (Homo sapiens, UniProt Q99572)
- Construct: host or cells: THP-1 cells differentiated with LPS and IFN-γ
- Sequence (Q99572 1-595): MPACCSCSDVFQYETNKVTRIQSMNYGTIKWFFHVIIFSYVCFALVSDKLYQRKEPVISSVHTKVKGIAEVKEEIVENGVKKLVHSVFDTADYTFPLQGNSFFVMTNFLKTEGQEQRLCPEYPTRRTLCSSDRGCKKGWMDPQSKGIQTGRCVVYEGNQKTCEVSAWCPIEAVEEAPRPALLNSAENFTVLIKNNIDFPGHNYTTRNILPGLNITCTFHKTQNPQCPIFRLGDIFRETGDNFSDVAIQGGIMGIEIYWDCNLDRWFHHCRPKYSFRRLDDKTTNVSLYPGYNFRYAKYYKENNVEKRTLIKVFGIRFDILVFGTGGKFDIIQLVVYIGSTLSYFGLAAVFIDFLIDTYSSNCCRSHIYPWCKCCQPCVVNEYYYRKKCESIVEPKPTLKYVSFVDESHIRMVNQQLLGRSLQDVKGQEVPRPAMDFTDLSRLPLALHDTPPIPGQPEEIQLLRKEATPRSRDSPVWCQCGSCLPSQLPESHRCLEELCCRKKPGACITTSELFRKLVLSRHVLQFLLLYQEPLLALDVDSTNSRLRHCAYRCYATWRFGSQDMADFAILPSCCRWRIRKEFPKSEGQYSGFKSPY
- test-details: IL-1β release assay in differentiated THP-1 cells stimulated with BzATP (Example 9)
- Type: cell-based
- measurement-conditions: 0.1 μM concentration, BzATP 250 uM, read-out: IL-1β % Inhib. @ 0.3 or 0.1 μM

compound: CC(O)Cn1ccc2c(NC(=O)CC3C[C@@H]4CC[C@H]3C4)cccc2c1=O (stereo partly drawn)
inhibition at 0.1 µM: 51 to 75%

compound: CC(C)(O)Cn1ccc2c(NC(=O)[C@@]34C[C@@H]5C[C@@H](C[C@@H]3C5)C4)cccc2c1=O
inhibition at 0.1 µM: 0 to 25%

compound: CC1CNC(CN2CCc3c(NC(=O)CC45CC6CC(CC(C6)C4)C5)cccc3C2=O)CN1 (stereo not drawn)
inhibition at 0.1 µM: > 76%
